Reference source: PubChem BioAssay (NCATS)

assay summary: Quantitative High-Throughput drug screen in 47 multiple myeloma cell lines against the NCATS MIPE library collection: KMS12PE_JCRB cell viability assay (AID 1918972); note: nearly all actives have a fitted effect of over 30% in size;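 for viability: 100% = DMSO only wells and 0% = wells with media alone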
run conditions: KMS12PE myeloma viability, CellTiter-Glo ATP, 48 h; series mostly up to 45.8 µM
Results filed as inconclusive are left out. Active and inactive are the calls of the source. Calls come from the whole dose curve; as a rule, active = well fitted cell-killing curve with a large enough effect; inconclusive = small, poorly fitted or top-dose-only effect, or effect the other way; inactive = no such curve, though single readings can be large or run the other way.
Outcome codes: 1.0 (active), 0.0 (inactive)

compound	class label
COc1c(O)cc2c(c1O)[C@@H]1O[C@H](CO)[C@@H](O)[C@H](O)[C@H]1OC2=O	0.0
CC(C)[N+]1(C)[C@@H]2CC[C@H]1CC(OC(=O)C(CO)c1ccccc1)C2 (some centres undefined)	1.0
CC1(C)C(=O)N(CCN2CCC(C(=O)c3ccc(F)cc3)CC2)c2ccccc21	1.0
Cc1cc2c(s1)Nc1ccccc1N=C2N1CCN(C)CC1	0.0
CCCCC(CC)COC(=O)C(C#N)=C(c1ccccc1)c1ccccc1 (centres undefined)	0.0
CCCCN(CCCC)CCC(O)c1cc2c(Cl)cc(Cl)cc2c2cc(C(F)(F)F)ccc12 (centres undefined)	0.0
C=CCc1cc(OC)c(O)c(C(=O)NCCO)c1	0.0
Clc1ccc(C(Cn2ccnc2)OCc2ccsc2Cl)c(Cl)c1 (centres undefined)	1.0
O=c1oc2cc(O)ccc2s1	0.0
O=c1cc(N2CCOCC2)oc2c(-c3ccccc3)cccc12	0.0
CN(C)c1ccc2nc3ccc(=[N+](C)C)cc-3sc2c1	1.0
CCCc1cc(=O)[nH]c(=S)[nH]1	0.0
N=C(N=C(N)N)N1CCOCC1	0.0
O=Nc1c(-c2c(O)[nH]c3cc(Br)ccc23)[nH]c2ccccc12	1.0
Cc1cc(O)c2c(c1)C(=O)c1cc(O)cc(O)c1C2=O	0.0
Nc1cc(C(Cl)=C(Cl)Cl)c(S(N)(=O)=O)cc1S(N)(=O)=O	0.0
O=C(c1ccccc1)c1ccc2n1CCC2C(=O)O (centres undefined)	0.0
NS(=O)(=O)c1cc(C(=O)O)c(NCc2ccco2)cc1Cl	0.0
O=C(NCC1CCCCN1)c1cc(OCC(F)(F)F)ccc1OCC(F)(F)F (centres undefined)	1.0
CC(C)c1ccc2c(c1)c(SC(C)(C)C)c(CC(C)(C)C(=O)O)n2Cc1ccc(Cl)cc1	0.0
CCOC(=O)C1=C[C@@H](OC(CC)CC)[C@H](NC(C)=O)[C@@H](N)C1	0.0
COc1ccc(C2(C#N)CCC(C(=O)O)CC2)cc1OC1CCCC1 (centres undefined)	0.0
Nc1ccn([C@@H]2O[C@H](CO)[C@@H](O)C2O)c(=O)n1 (some centres undefined)	0.0
O=C(O)CCNC(=O)c1ccc(N=Nc2ccc(O)c(C(=O)O)c2)cc1	0.0

* * *

assay summary: Quantitative High-Throughput drug screen in 47 multiple myeloma cell lines against the NCATS MIPE library collection: Karpas620_DSMZ cell viability assay (AID 1918959);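 note: 100% = DMSO-only wells and 0% = cell-free media-only wells; nearly all actives have a fitted effect of over 30% in size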
run conditions: Karpas620 myeloma viability, CellTiter-Glo ATP luminescence, 48 h; series mostly up to 45.8 µM
Records with an inconclusive call do not appear. The source made the active and inactive calls. Calls come from the whole dose curve; as a rule, active = well fitted cell-killing curve with a large enough effect; inconclusive = small, poorly fitted or top-dose-only effect, or effect the other way; inactive = no such curve, though single readings can be large or run the other way.

compound	outcome
CC1=C(C)C(=O)C(C(CCCCCC(=O)O)c2ccccc2)=C(C)C1=O (stereo not drawn)	inactive
c1cnc2cc3c(cc2n1)C1CNCC3C1	inactive
CCC(C)(Oc1ccc(C2(c3ccc(OC(C)(CC)C(=O)O)cc3)CCCCC2)cc1)C(=O)O (stereo not drawn)	inactive
